# Measurement Description: TOX21_p53_BLA_p3_viability: Viability Assessment in the Tox21 HCT-116 p53 Agonism Beta-lactamase Assay, Phase 3 (AID 2283593);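 further: cells exposed to compound for 16 h before reading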
Records with an inconclusive call do not appear. Activity calls are given as the source filed them. How the source made its calls: active means hit-call score of the fitted dose curve at least 0.9, where 1 is the maximum; inconclusive means response in the unintended direction; inactive means score below 0.9. Where a SMILES comes first, the peptide text is derived from it. [ ]: non-standard residue; d: D form. Orn = NCCC[C@H](N)C(=O)O
Bench note: report the call from active, inactive

Status in this test for `C=C(C)C(=O)OCC(C)(C)COC(=O)C(=C)C` ?
inactive

Status in this test for `CCN(CC)c1ccc(N)cc1` ?
inactive

Status in this test for OC(CCN1CCCC1)(c1ccccc1)C1CCCCC1 (stereo not given) ?
inactive

Status in this test for `CSc1cnccn1` ?
inactive

Status in this test for `CCCN1C[C@H](CSC)C[C@@H]2c3cccc4[nH]cc(c34)C[C@H]21` ?
inactive

Status in this test for C=CC1CC2C=CC1C2 (stereo not given) ?
inactive

Status in this test for `CC(C)=CCC1=C(O)c2ccccc2C(=O)C1=O` ?
inactive

Status in this test for `O=C(C=Cc1ccc(O)c(O)c1)O[C@@H]1C[C@](O)(C(=O)O)C[C@@H](O)[C@H]1O` ?
inactive

Status in this test for `COc1ccc(Cl)cc1C(=O)NCCc1ccc(S(=O)(=O)NC(=O)NC2CCCCC2)cc1` ?
inactive

Status in this test for CC(C)CC(C)(N)C#N (stereo not given) ?
inactive

Status in this test for CCN[C@@H]1C[C@H](N)[C@@H](OC2OC(CN)=CCC2N)[C@H](O)[C@H]1O[C@H]1OC[C@](C)(O)[C@H](NC)[C@H]1O (stereo not given in full) ?
inactive

Status in this test for `CCN1/C(=C/C=C/c2sc3ccccc3[n+]2CC)Sc2ccccc21` ?
active

Status in this test for `O=C(O)COc1nn(Cc2ccccc2)c2ccccc12` ?
inactive

Status in this test for O=C1C(=O)c2ccccc2C(O)=C1C1CCC(c2ccc(Cl)cc2)CC1 (stereo not given) ?
inactive

Status in this test for `CCCCCCCC[P+](CCCCCCCC)(CCCCCCCC)CCCCCCCC` ?
active

Status in this test for `CCOc1ccccc1O[C@H](c1ccccc1)[C@H]1CNCCO1` ?
inactive

Status in this test for `CO/N=C(\C(=O)N[C@@H]1C(=O)N2C(C(=O)O)=C(CSC(=O)c3ccco3)CS[C@H]12)c1csc(N)n1` ?
inactive

Status in this test for `CC(=O)c1nccs1` ?
inactive

Status in this test for `Clc1ccc(Cn2c(CN3CCCC3)nc3ccccc32)cc1` ?
inactive

Status in this test for `O=C(Nc1ccc(Cl)cc1)Nc1ccc(Cl)c(C(F)(F)F)c1` ?
inactive

Status in this test for `CCOC(C)(C)C` ?
inactive

Status in this test for CC(=O)OC(C)C[N+](C)(C)C (stereo not given) ?
inactive

Status in this test for `O=S(=O)(c1ccccc1)c1ccc(Cl)cc1` ?
inactive

Status in this test for CC1(C)S[C@@H]2[C@H](NC(=O)C(C(=O)O)c3ccsc3)C(=O)N2[C@H]1C(=O)O (stereo not given in full) ?
inactive

Status in this test for `CC[C@H]1OC(=O)[C@H](C)[C@@H](O[C@H]2C[C@@](C)(OC)[C@@H](O)[C@H](C)O2)[C@H](C)[C@@H](O[C@@H]2O[C@H](C)C[C@H](N(C)C)[C@H]2O)[C@](C)(OC)C[C@@H](C)C(=O)[C@H](C)[C@@H](O)[C@]1(C)O` ?
inactive

Status in this test for COC(=O)C1CC(=O)C(C(=O)OC)CC1=O (stereo not given) ?
inactive

Status in this test for CC(C)C[C@@H]1NC(=O)[C@H](CCCN)NC(=O)[C@H](C(C)C)NC(=O)[C@@H]2CCCN2C(=O)[C@@H](Cc2ccccc2)NC(=O)[C@H](CC(C)C)NC(=O)[C@H](CCCN)NC(=O)[C@H](C(C)C)NC(=O)[C@@H]2CCCN2C(=O)[C@@H](Cc2ccccc2)NC1=O (cyclo(V[Orn]L[dF]PV[Orn]L[dF]P)) ?
active

Status in this test for CC1CN(c2ccccc2)NC1=O (stereo not given) ?
inactive

Status in this test for `Cc1cccc(C)c1Nc1ncccc1C(=O)O` ?
inactive

Status in this test for `Cc1cnc(C(=O)O)c[n+]1[O-]` ?
inactive

Status in this test for `CCCC[P+](C)(CCCC)CCCC` ?
inactive

Status in this test for CC(C)C1OCCN1CCOC(=O)NCCCCCCNC(=O)OCCN1CCOC1C(C)C (stereo not given) ?
inactive

Status in this test for `C[C@H]1C[C@H]2[C@@H]3CCC4=CC(=O)C=C[C@]4(C)[C@@]3(F)[C@@H](O)C[C@]2(C)[C@@]1(O)C(=O)CCl` ?
inactive

Status in this test for `NCCOCCN` ?
inactive

Status in this test for CC(S)C(C)S (stereo not given) ?
inactive

Status in this test for COc1c(N2CCNC(C)C2)c(F)cc2c(=O)c(C(=O)O)cn(C3CC3)c12 (stereo not given) ?
inactive

Status in this test for `Cc1ccccc1C#N` ?
inactive

Status in this test for `CC(C)Cc1ccc(CC(=O)O)cc1` ?
inactive

Status in this test for `CCOC(=O)c1cc(-c2ccccc2)nc2ccc(C)cc12` ?
inactive

Status in this test for `O=c1[nH]c2ccccc2n1CCCN1CCN(C(c2ccccc2)c2ccccc2)CC1` ?
inactive

Status in this test for `CN1C[C@H](C(=O)N[C@]2(C)O[C@@]3(O)[C@@H]4CCCN4C(=O)[C@H](Cc4ccccc4)N3C2=O)C[C@@H]2c3cccc4[nH]cc(c34)C[C@H]21` ?
inactive

Status in this test for CCCNC(C)C(=O)Nc1ccccc1C (stereo not given) ?
inactive

Status in this test for CC(N)C12CC3CC(CC(C3)C1)C2 (stereo not given) ?
inactive

Status in this test for C1=CC2C3C=CC(C3)C2C1 (stereo not given) (tested in a mixture with another compound) ?
inactive

Status in this test for `CC(C)C(=O)OC(=O)C(C)C` ?
inactive
